assay.explanation: STM_H9_NormalizedViability: Cytotoxicity Assessment at 120 hours in the Stemina devTOX quickPredict H9 human embryonic stem cell (hESC)-based Assay (AID 2283784)
Description: STM_H9_viability utilizes undifferentiated H9 cells to measure cell viability.STM_H9_NormalizedViability is a component calculated in the STM_H9_viability assay. […] H9 hESCs maintained in a pluripotent state were exposed to test compound for 72h with chemical replenishment with media replacement every 24h. Cell-conditioned media from the final 24-h treatment period was collected for analysis of the targeted biomarker, and cell viability of the corresponding cell layer was assessed. […]
Records with an inconclusive call do not appear. The source made the active and inactive calls. Rule for the calls: active = hit-call score of the fitted dose curve at least 0.9, where 1 is the maximum; inconclusive = response in the unintended direction; inactive = score below 0.9.
Field 'call' accepts y (active), n (inactive)

Check out these entries, answers already filled in.
COCCOCCOCCOC :: n
Cn1c(=O)cc(Oc2ccc(F)cc2F)c2cnc(NCC(C)(C)O)nc21 :: n

Now examine the next entry.
Ask | Dear colleague, could you share the recorded outcome for Fc1ccccc1[C@@H](F)COC1CCC(Nc2ncnc3[nH]ncc23)CC1 (stereo partly specified) when you have a moment?
Reply | n

###

assay.explanation: ATG_TA_CIS: Attagene CIS-FACTORIAL HepG2 Assay for human TA Basal Promoter (AID 2282964)
test.context: HepG2 Attagene CIS-factorial TA basal promoter reporter; actives raise or lower the signal
The source made the active and inactive calls. Rule for the calls: active = hit-call score of the fitted dose curve at least 0.9, where 1 is the maximum; inactive = score below 0.9.
quantity.kind: outcome

# example entries with known answers
CC1=CC(=O)CC(C)(C)C1 :: inactive
Cc1ccc(O)cc1 :: inactive
CCCN(C1CCN(C(=O)C2CCNCC2)CC1)[C@@H]1CCc2ccc(OC)cc2C1 :: inactive
O=C(NS(=O)(=O)/C=C/c1ccccc1)c1ccc(F)cc1Cl :: inactive
C=CC(=C)CCC=C(C)C :: inactive

Ask | Look at this compound and give its reported outcome. CCCCC(CC)COC(=O)CCCCCCCCC(=O)OCC(CC)CCCC (configuration not stated)
Reply | inactive

Ask | Look at this compound and give its reported outcome. "CC(C)CCCCCCOC(=O)c1ccc(C(=O)OCCCCCCC(C)C)c(C(=O)OCCCCCCC(C)C)c1"
Reply | inactive

###

Read-out: growth arrest and DNA damage 45 (GADD45A), GADD45A (gene 1647)
assay.explanation: LTEA_HepaRG_GADD45A: Life Technologies and Expression Analysis (LTEA) Assay for growth arrest and DNA damage 45 (GADD45A) using HepaRG (AID 2283458)
test.context: mRNA level, 48 h; actives raise or lower the signal
Active and inactive are the calls of the source. How the source made its calls: active means hit-call score of the fitted dose curve at least 0.9, where 1 is the maximum; inactive means score below 0.9.
quantity.kind: AC50

# example entries with known answers
Nc1nc2ncc(CNc3ccc(C(=O)N[C@@H](CCC(=O)O)C(=O)O)cc3)nc2c(=O)[nH]1 :: inactive
C1=CCCC=CCCC=CCC1 :: inactive
C[C@](N)(Cc1ccc(O)c(O)c1)C(=O)O :: inactive
Cn1cnc([N+](=O)[O-])c1Sc1ncnc2nc[nH]c12 :: inactive
O=c1n(CC2CO2)c(=O)n(CC2CO2)c(=O)n1CC1CO1 (stereo not given) :: inactive

Ask | Look at this compound and give its reported AC50. "CCc1cc(SCc2sc(-c3ccc(C(F)(F)F)cc3)nc2CN2CCN(c3ccc(OC)cc3)CC2)ccc1OCC(=O)O"
Reply | 8.67 µM (active)

Ask | Look at this compound and give its reported AC50. "CCOc1cccc(-n2cc(C(=O)N3CCN(c4cc(C(=O)O)c5ccccc5c4)CC3)nc2-c2ccc(C)cc2)c1"
Reply | 13.4 µM (active)

Ask | Look at this compound and give its reported AC50. "COc1cccc(-c2ccc(/C=C\CN3CCCCCC3)cc2Cl)c1"
Reply | 69 µM (active)

Ask | Look at this compound and give its reported AC50. "O=C(OC[C@H]1O[C@@H](OC(=O)c2cc(O)c(O)c(OC(=O)c3cc(O)c(O)c(O)c3)c2)[C@H](OC(=O)c2cc(O)c(O)c(OC(=O)c3cc(O)c(O)c(O)c3)c2)[C@@H](OC(=O)c2cc(O)c(O)c(OC(=O)c3cc(O)c(O)c(O)c3)c2)[C@@H]1OC(=O)c1cc(O)c(O)c(OC(=O)c2cc(O)c(O)c(O)c2)c1)c1cc(O)c(O)c(OC(=O)c2cc(O)c(O)c(O)c2)c1"
Reply | 3.26 µM (active)

Ask | Look at this compound and give its reported AC50. "CCOC(=O)CC(CC(=O)OCC)(OC(C)=O)C(=O)OCC"
Reply | inactive

###

assay.explanation: CCTE_Shafer_MEA_acute_per_network_burst_electrodes_number_mean: CCTE's Neural Acute Assay for Mean Number of Electrodes in a Network Burst, Shafer Lab (AID 2284021);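 note: curves fitted for decreases only so hits reduce electrodes per burst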
The source made the active and inactive calls. The calls were made as follows: active = hit-call score of the fitted dose curve at least 0.9, where 1 is the maximum; inactive = score below 0.9.
Field 'call' accepts y for active, n for inactive

On1ccccc1=S :: n
CCC(C)(C)C(=O)O[C@H]1C[C@@H](C)C=C2C=C[C@H](C)[C@H](CC[C@@H]3C[C@@H](O)CC(=O)O3)[C@H]21 :: n
Cc1[nH]cnc1C[C@H]1CCc2c(C)c3ccccc3n2C1=O :: y
CC(C)=CCCC(C)=CC=O :: n
CC[C@H]1CC[C@H](NCc2cc3c(cc2OC)[C@H]2C[C@H]2C(=O)N3C)[C@H](c2ccccc2)N1 :: n
O=P(OC(CCl)CCl)(OC(CCl)CCl)OC(CCl)CCl :: n
O=C(O)CCN(C1(C(=O)NO)CCCC1)S(=O)(=O)c1ccc(Oc2ccc(F)cc2)cc1 :: n
CCCCCCc1ccc(O)cc1O :: y
CCCCC(CC)COC(=O)CCCCCCCCC(=O)OCC(CC)CCCC (stereo unspecified) :: n
Cn1cnc([N+](=O)[O-])c1Sc1ncnc2nc[nH]c12 :: n

Now examine the next entry.
Ask | Dear colleague, could you share the recorded outcome for "CCCN(C1CCN(C(=O)C2CCNCC2)CC1)[C@@H]1CCc2ccc(OC)cc2C1" when you have a moment?
Reply | y

###

Read-out: Pyruvate Dehydrogenase Kinase 4 (PDK4), PDK4 (gene 5166)
assay.explanation: LTEA_HepaRG_PDK4: Life Technologies and Expression Analysis (LTEA) Assay for Pyruvate Dehydrogenase Kinase 4 (PDK4) using HepaRG (AID 2283525)
test.context: mRNA level, 48 h; actives raise or lower the signal
Active and inactive are the calls of the source. How the source made its calls: active means hit-call score of the fitted dose curve at least 0.9, where 1 is the maximum; inactive means score below 0.9.
quantity.kind: outcome

Cc1ccc(O)cc1 :: inactive
CC(=O)OCCC(C)C :: inactive
CCOCCO :: inactive

###

assay.explanation: APR_HepG2_p53Act_24hr: Apredica 24-hour HepG2 Assay for p53 Activation (AID 2282913);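 note: p53 protein immunofluorescence averaged per cell in HepG2 with Hoechst nuclei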
test.context: high-content imaging, actives raise or lower the signal
Protocol: APR_HepG2_24hr is a cell-based, multiplexed-readout assay that uses HepG2, a human liver cell line, with measurements taken at 24 hours after chemical dosing in a 384-well plate.APR_HepG2_p53Act_24hr is one of 10 assay component(s) measured or calculated from the APR_HepG2_24hr assay. […] This assay endpoint, APR_HepG2_p53Act_24hr, was analyzed with bidirectional fitting relative to DMSO as the negative control and baseline of activity. […]
Calls of active or inactive are those of the source. How the source made its calls: active means hit-call score of the fitted dose curve at least 0.9, where 1 is the maximum; inactive means score below 0.9.
quantity.kind: AC50

# example entries with known answers
Cc1ccc(N)cc1O :: inactive
CNS(=O)(=O)c1cc(C(=O)N2CCC(CCN3C4CCC3CC(n3c(C)nc5ccccc53)C4)(c3cccc(F)c3)CC2)c(Cl)cc1F (stereo unspecified) :: 72.7 µM (active)
CNCc1ccc(NC(=O)c2c[nH]c3c2C(=O)CCC3)cc1 :: inactive
CCCCC(CC)COC(=O)CCCCCCCCC(=O)OCC(CC)CCCC (stereo unspecified) :: 108 µM (active)
CC(C)CCCCCCOC(=O)c1ccc(C(=O)OCCCCCCC(C)C)c(C(=O)OCCCCCCC(C)C)c1 :: inactive

Ask | Look at this compound and give its reported AC50. "Cn1c(=O)cc(Oc2ccc(F)cc2F)c2cnc(NCC(C)(C)O)nc21"
Reply | inactive

###

Read-out: Interleukin 6 (IL6), IL6 (gene 3569)
assay.explanation: LTEA_HepaRG_IL6: Life Technologies and Expression Analysis (LTEA) Assay for Interleukin 6 (IL6) using HepaRG (AID 2283509)
test.context: mRNA level, 48 h; actives raise or lower the signal
Calls of active or inactive are those of the source. How the source made its calls: active means hit-call score of the fitted dose curve at least 0.9, where 1 is the maximum; inactive means score below 0.9.
Field 'call' accepts yes (active), no (inactive)

CCCCCCCCCCCCCCCO :: no
CC(C)CCO :: no
COc1ccc(/C=C/S(=O)(=O)NC(=O)c2ccc(C)cc2Cl)cc1 :: no
Cc1ccc(C)c(O)c1 :: no
O=P(OC(CCl)CCl)(OC(CCl)CCl)OC(CCl)CCl :: yes

Ask | Dear colleague, could you share the recorded outcome for "CC[C@H](C)C(=O)O[C@H]1C[C@@H](C)C=C2C=C[C@H](C)[C@H](CC[C@@H]3C[C@@H](O)CC(=O)O3)[C@H]21" when you have a moment?
Reply | no

Ask | Dear colleague, could you share the recorded outcome for "CC(C)CCCCCCOC(=O)c1ccc(C(=O)OCCCCCCC(C)C)c(C(=O)OCCCCCCC(C)C)c1" when you have a moment?
Reply | no

Ask | Dear colleague, could you share the recorded outcome for "On1ccccc1=S" when you have a moment?
Reply | no
